The reported measurements were obtained from paper PMC11503491.

- SYSTEM_TESTED: wild-type SARS-CoV-2 Wuhan Hu-1 receptor-binding domain (residues 319-533) (SARS-CoV-2 Wuhan-Hu-1)
- RUN_DESCRIPTION: BLI
- RUN_CONDITIONS: both partners purified
PROPERTY: binding result

{"BINDER": "SA55 (antibody, V domains shown, also called S2X259-like class 4 antibody) VH: QVQLVQSGAEVKKPGSSVKVSCKASGGTFRSHVISWVRQAPGQGLEWMGGFIPLFGTTIYAQAFQGRVMISADESTSTAYMELSSLRSEDTAVYFCARLFPNGDPNSPEDGFDIWGQGTLVTVSS VL: DIQMTQSPSSLSASVGDRVTITCQASQDIGNYLNWYQQKPGKAPKLLIYDASHLETGVPSRFSGSGSGTDFTFTISSLQPEDIATYYCQRYDDLPSYTFGQGTKVEIK", "PROPERTY": "binding result", "OBSERVED": "binds"}
